measured-target: M71 OR (Mus musculus, UniProt Q60893)
Construct: the increase of OSNs expressing the M71 OR results in the coalescence of labeled axons; expressed in transfected cells; host or cells: olfactory sensory neurons of living transgenic mice (4•M71Cα, 5•M71Cα), made by pronuclear injection of the M71 minigene
Sequence (Q60893 1-309): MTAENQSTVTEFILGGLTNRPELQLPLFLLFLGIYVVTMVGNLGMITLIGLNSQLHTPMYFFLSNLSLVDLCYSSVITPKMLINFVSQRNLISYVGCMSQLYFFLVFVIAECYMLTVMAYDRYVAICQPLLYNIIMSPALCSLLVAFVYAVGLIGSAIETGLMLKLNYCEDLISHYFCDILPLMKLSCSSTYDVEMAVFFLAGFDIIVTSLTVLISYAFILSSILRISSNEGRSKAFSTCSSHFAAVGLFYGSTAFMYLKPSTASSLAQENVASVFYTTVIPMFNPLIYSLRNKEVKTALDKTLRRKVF
test-description: In vivo synaptophluorin (SpH) imaging of odor-evoked glomerular activity in 4•M71Cα mice
setup-conditions: 4•M71Cα animals; vapor phase, odor dilutions 0% to 15%
property-label: glomerular activity (in vivo SpH imaging)

• CC(=O)c1ccc(C)cc1 = observed
• CC(=O)c1ccccc1 = observed
• CC(=O)c1ccc(C)cc1C = observed
